Value source: paper PMC10574094

assay: Pharmacokinetics in mice, single IP injection; assay type: in vivo; settings: Nude, mouse, plasma, intraperitoneal, 25 mg/kg, 25 mg/kg IP, 6 h, individual animals
VALUE_KIND: concentration at 6 h (nM)
# output: bare number, implied unit nM

### Prompt If you can, please state the reported concentration at 6 h value of `Cc1ncsc1-c1ccc([C@H](C)NC(=O)[C@@H]2C[C@@H](O)CN2C(=O)[C@@H](NC(=O)CCCCCCCCCN2CCN(C(=O)CCCCCC3(CN)CCN(c4cnc(Sc5cccc(Cl)c5Cl)c(N)n4)CC3)CC2)C(C)(C)C)cc1` .
### Response 360

* * *

experiment: Pharmacokinetics in mice, single IP injection; format: in vivo; conditions: Nude, mouse, plasma; mice, single IP 50 mg/kg
VALUE_KIND: AUC (µM·h)
Give a bare numeral; the unit µM·h is implied.

### Prompt Reported AUC, compound `Cc1ncsc1-c1ccc([C@H](C)NC(=O)[C@@H]2C[C@@H](O)CN2C(=O)[C@@H](NC(=O)CCCCCCCCCN2CCN(C(=O)CCCCCC3(CN)CCN(c4cnc(Sc5cccc(Cl)c5Cl)c(N)n4)CC3)CC2)C(C)(C)C)cc1` : ____
### Response 15.1

* * *

target: SHP2 (Homo sapiens); experiment: SHP2 degradation by Western blotting in HEK293 cells; assay type: cell-based; parameters: endogenous in cells; host or cells: HEK293; settings: HEK293 cells, 16 h treatment, 10 μM
Sequence (Q06124 whole entry): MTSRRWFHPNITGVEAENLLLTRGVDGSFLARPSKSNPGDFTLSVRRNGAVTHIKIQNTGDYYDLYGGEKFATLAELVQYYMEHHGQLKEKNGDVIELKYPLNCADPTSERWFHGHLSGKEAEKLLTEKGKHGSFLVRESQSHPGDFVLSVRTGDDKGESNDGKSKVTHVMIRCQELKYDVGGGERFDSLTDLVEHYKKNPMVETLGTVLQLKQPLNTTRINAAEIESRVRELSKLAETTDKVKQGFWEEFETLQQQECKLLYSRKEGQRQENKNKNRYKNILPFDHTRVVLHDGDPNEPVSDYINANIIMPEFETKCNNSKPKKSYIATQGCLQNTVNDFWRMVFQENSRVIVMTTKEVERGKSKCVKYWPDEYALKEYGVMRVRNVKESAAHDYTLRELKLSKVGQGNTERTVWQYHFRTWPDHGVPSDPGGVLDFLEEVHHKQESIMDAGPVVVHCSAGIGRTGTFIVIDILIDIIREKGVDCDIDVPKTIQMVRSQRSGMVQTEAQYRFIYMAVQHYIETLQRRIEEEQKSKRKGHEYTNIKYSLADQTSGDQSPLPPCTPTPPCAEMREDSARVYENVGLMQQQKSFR
VALUE_KIND: Degradation at 10 μM (%)
Give the value, in units of %, as a plain number.

### Prompt // lookup Degradation at 10 μM for Cc1ncsc1-c1ccc([C@H](C)NC(=O)[C@@H]2C[C@@H](O)CN2C(=O)[C@@H](NC(=O)CCCCCCCNC(=O)CCCCCC2(CN)CCN(c3cnc(Sc4cccc(Cl)c4Cl)c(N)n3)CC2)C(C)(C)C)cc1 [SC7]
### Response 15

### Prompt Please look up its Degradation at 10 μM: Cc1ncsc1-c1ccc([C@H](C)NC(=O)[C@@H]2C[C@@H](O)CN2C(=O)[C@@H](NC(=O)CCCCCCCCCNC(=O)CCCCCC2(CN)CCN(c3cnc(Sc4cccc(Cl)c4Cl)c(N)n3)CC2)C(C)(C)C)cc1 [SC9]
### Response 25

Consider the record given below.
### Prompt Which Degradation at 10 μM reading was recorded for the molecule Cc1ncsc1-c1ccc([C@H](C)NC(=O)[C@@H]2C[C@@H](O)CN2C(=O)[C@@H](NC(=O)CCCCCCCCCCCNC(=O)CCCCCC2(CN)CCN(c3cnc(Sc4cccc(Cl)c4Cl)c(N)n3)CC2)C(C)(C)C)cc1 [SC11] ?
### Response 64
